# Tested on: HOP-92 NSCLC
# test details: NCI tumour cell line growth inhibition, 48 h
Listing of entries alongside the reported GI50.

COC(=O)c1oc2c(C(=O)/C=C/c3ccc(OC)cc3)c(OCCCN3CCCCC3)ccc2c1C = 808 nM
CC(CN(CP(=O)([O-])[O-])CP(=O)([O-])[O-])N(CP(=O)([O-])[O-])CP(=O)([O-])[O-].N[C@@H]1CCCC[C@@H]1N.[Pt+2] (stereo not given) = > 100000 nM
CC(O)CN(CCN(CC(C)O)CC(C)O)CC(C)O.O=[N+]([O-])O.[Cu+2] (stereo not given) = > 100000 nM
COc1cc(/C=C/C(=O)c2ccc(Nc3nc(Nc4ccc(F)cc4)nc(Nc4ccc(F)cc4)n3)cc2)cc(OC)c1OC = 2300 nM

Just so you know, measured GI50 for Nc1nc(Cl)nc2c1ncn2C1O[C@H](CO)[C@@H](O)[C@@H]1F (stereo not given in full) came out at 65.3 nM

Just so you know, measured GI50 for CCN1C(=O)N(c2c(F)c(OC)cc(OC)c2F)Cc2cnc3[nH]c(CN4CCOCC4)cc3c21 came out at 2060 nM

* * *

# Test system: SK-MEL-28 melanoma
# test details: NCI tumour cell line growth inhibition, 48 h
result type: TGI

Just so you know, measured TGI for Cc1nn(-c2ccccc2)c(C)c1/C=N/NC(=O)c1sc(=S)n(-c2ccc(Cl)cc2)c1N came out at > 100 µM

Just so you know, measured TGI for Cc1ccc(S(=O)(=O)OC2CN3CCC2CC3)cc1 (stereo unspecified) came out at > 100 µM

Just so you know, measured TGI for CC(CN(CP(=O)([O-])[O-])CP(=O)([O-])[O-])N(CP(=O)([O-])[O-])CP(=O)([O-])[O-].N[C@@H]1CCCC[C@@H]1N.[Pt+2] (stereo unspecified) came out at > 100 µM

Just so you know, measured TGI for CCOC(=O)c1cc(-c2ccc(OC)c(OC)c2)cn1C came out at > 10 µM

Just so you know, measured TGI for Cc1ccc(/C=C2\CCOC2=O)cc1 came out at > 100 µM

Just so you know, measured TGI for CC(C)(C)[C@@H]1NC(=O)CN1C(=O)OCc1ccccc1 came out at > 100 µM

* * *

# System: SF-295 CNS
# test details: NCI tumour cell line growth inhibition, 48 h
Where a SMILES comes first, the peptide text is derived from it. [ ]: non-standard residue; d: D form. The star is where a group is joined. X28 = COC1=CC(=O)N(C(=O)[C@@H](O*)C(C)C)[C@H]1Cc1ccccc1; NMeL = CN[C@@H](CC(C)C)C(=O)O; Hexanoyl = CCCCCC(=O)*
result type: TGI

Please review the following examples before continuing.
OC1(c2ccc(Cl)cc2)c2ccccc2C2=Nc3ccccc3CN21 (centres undefined) = > 50.4 µM
Cc1cccc(C)c1NC(=O)C(=O)C1C(=O)N(c2ccccc2)N=C1N (centres undefined) = > 100 µM
CCCCCC(=O)N[C@H](C(=O)N[C@H](C(=O)N(C)[C@@H](CC(C)C)C(=O)N1CCC[C@H]1C(=O)N1CCC[C@H]1C(=O)O[C@H](C(=O)N1C(=O)C=C(OC)[C@@H]1Cc1ccccc1)C(C)C)C(C)C)C(C)C (Hexanoyl-VV[NMeL]PP-X28) = > 100 µM

Could you now consider this next molecule?
Just so you know, measured TGI for Cc1c2c(nn1-c1ccc(S/N=C3\SCC(=O)CN3c3ccccc3)cc1)-c1ccccc1CC2 came out at > 50 µM
